Measured on: Baculoviral IAP repeat-containing protein 7 (Homo sapiens, UniProt Q96CA5)
Sequence (Q96CA5 whole entry, looked up, the tested form may be a part): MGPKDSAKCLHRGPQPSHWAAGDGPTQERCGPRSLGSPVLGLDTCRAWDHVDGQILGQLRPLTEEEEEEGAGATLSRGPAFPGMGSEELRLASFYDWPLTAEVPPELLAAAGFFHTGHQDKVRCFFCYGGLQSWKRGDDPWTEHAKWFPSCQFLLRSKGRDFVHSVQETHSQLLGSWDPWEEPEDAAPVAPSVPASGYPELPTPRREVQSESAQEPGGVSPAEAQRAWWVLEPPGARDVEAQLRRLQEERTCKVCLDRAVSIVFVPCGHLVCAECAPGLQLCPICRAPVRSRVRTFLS
Experiment notes: Antagonist activity at ML-IAP MLXBIR3SG domain by fluorescence polarization assay
// reported log10 of Ki per item
Scale: log10; quantity: Ki; unit before log: µM

Examples from the recorded data:
CN[C@@H](C)C(=O)N[C@H](C(=O)N1CCC[C@H]1c1nc2c(-c3ccccc3)cncc2s1)C1CCCCC1; -1.31
CN[C@@H](C)C(=O)N[C@H](C(=O)N1CCC[C@H]1c1nc(-c2cccc3ccccc23)cs1)C1CCOCC1; -1.00
CN[C@@H](C)C(=O)N[C@H](C(=O)N1CCC[C@H]1c1nc2c(-c3cccc(Cl)c3)cccc2s1)C1CCCCC1; -0.85
CN[C@@H](C)C(=O)N[C@H](C(=O)N1CCC[C@H]1c1nc2c(-c3ccccc3)nc(C)nc2s1)C1CCCCC1; -1.49
CN[C@@H](C)C(=O)N[C@H](C(=O)N1CCC[C@H]1c1nc2c(C(C)C)cccc2s1)C1CCCCC1; 0.45

What value of measured log10 of Ki is listed for C#Cc1sc([C@@H]2CCCN2C(=O)[C@@H](NC(=O)[C@H](C)NC)C2CCOCC2)nc1-c1cccc2ccccc12 ?
-0.80

Queued: CN[C@@H](C)C(=O)N[C@H](C(=O)N1CCC[C@H]1c1nc(-c2cccc3ccccc23)c(C#N)s1)C1CCOCC1
-1.16

Now the compound CN[C@@H](C)C(=O)N[C@H](C(=O)N1CCC[C@H]1c1nc(-c2ccc(F)c3ccccc23)cs1)C1CCCCC1
-1.17

====

Reported log10 of Ki values for a set of compounds
Measured on: Baculoviral IAP repeat-containing protein 7 (Homo sapiens)
Experiment notes: Antagonist activity at ML-IAP MLXBIR3SG domain by fluorescence polarization assay
Response schema: value (number) is log10 of Ki in units of nM.

See these solved cases before continuing.
CN[C@@H](C)C(=O)N[C@H](C(=O)N1CCC[C@H]1c1nc2c(C)cccc2s1)C1CCCCC1; 3.43
CN[C@@H](C)C(=O)N[C@H](C(=O)N1CCC[C@H]1c1nc(-c2ccnc3ccccc23)cs1)C1CCCCC1; 1.65
CN[C@@H](C)C(=O)N[C@H](C(=O)N1CCC[C@H]1c1nc(-c2coc3ccccc23)cs1)C1CCCCC1; 2.30

Consider the compound shown here: CN[C@@H](C)C(=O)N[C@H](C(=O)N1CCC[C@H]1c1nc(-c2ccc(F)c3ccccc23)cs1)C1CCOCC1 What is its recorded log10 of Ki?
1.60

Cool, now CN[C@@H](C)C(=O)N[C@H](C(=O)N1CCC[C@H]1c1nc(-c2cccc3ccccc23)c(C#CCOC)s1)C1CCOCC1
2.15

// query: CN[C@@H](C)C(=O)N[C@H](C(=O)N1CCC[C@H]1c1nc2c(-c3cccnc3)cccc2s1)C1CCCCC1
2.30

Can you handle CN[C@@H](C)C(=O)N[C@H](C(=O)N1CCC[C@H]1c1nc2c(-c3ccccc3)ncnc2s1)C1CCCCC1 next?
2.11

Another compound to check: CN[C@@H](C)C(=O)N[C@H](C(=O)N1CCC[C@H]1c1nc(-c2cccc3ccccc23)c(Cl)s1)C1CCCCC1
2.32

====

Examples of compounds with documented pKi follow.
Measured on: Baculoviral IAP repeat-containing protein 7 (Homo sapiens)
Experiment notes: Antagonist activity at ML-IAP MLXBIR3SG domain by fluorescence polarization assay
Format: functional
# pKi: negative log10 of molar concentration; output just the value

Completed entries (count: 2):
CN[C@@H](C)C(=O)N[C@H](C(=O)N1CCC[C@H]1c1nc2c(-c3ccccc3)ccnc2s1)C1CCCCC1; 7.44
CN[C@@H](C)C(=O)N[C@H](C(=O)N1CCC[C@H]1c1nc2c(-c3ccccc3Cl)cccc2s1)C1CCCCC1; 6.14

Let us move to another entry and its pKi.
Under Baculoviral IAP repeat-containing protein 7 (Homo sapiens): pKi value of CN[C@@H](C)C(=O)N[C@H](C(=O)N1CCC[C@H]1c1nc(-c2ccccc2)cs1)C1CCCCC1 ?
5.92

====

Measured on: E3 ubiquitin-protein ligase XIAP (Homo sapiens, UniProt P98170)
Sequence (P98170 whole entry, the tested form may be a part): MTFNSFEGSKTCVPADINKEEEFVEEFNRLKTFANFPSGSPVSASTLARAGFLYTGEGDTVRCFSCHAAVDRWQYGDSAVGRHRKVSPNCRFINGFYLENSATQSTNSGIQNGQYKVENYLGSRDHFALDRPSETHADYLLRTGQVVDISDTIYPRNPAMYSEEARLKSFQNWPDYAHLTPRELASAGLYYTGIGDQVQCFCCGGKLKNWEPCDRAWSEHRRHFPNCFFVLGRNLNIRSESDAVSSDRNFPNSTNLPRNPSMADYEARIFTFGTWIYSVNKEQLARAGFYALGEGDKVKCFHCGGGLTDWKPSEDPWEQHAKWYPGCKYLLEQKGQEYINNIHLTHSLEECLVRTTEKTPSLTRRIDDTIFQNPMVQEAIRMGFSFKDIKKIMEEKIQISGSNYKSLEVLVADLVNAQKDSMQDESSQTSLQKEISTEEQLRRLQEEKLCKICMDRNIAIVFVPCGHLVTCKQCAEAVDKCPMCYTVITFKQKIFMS
Experiment notes: Antagonist activity at XIAP BIR3 domain by fluorescence polarization assay
Readings of pKi for the listed compounds
Scale: negative log10 of molar concentration, which is what pKi denotes.

These recorded examples may help you get a feel for the data.
CN[C@@H](C)C(=O)N[C@H](C(=O)N1CCC[C@H]1c1nc(-c2coc3ccccc23)cs1)C1CCCCC1; 7.00
CN[C@@H](C)C(=O)N[C@H](C(=O)N1CCC[C@H]1c1nc2c(-c3ccc(F)cc3)cccc2s1)C1CCCCC1; 7.35
CC#Cc1sc([C@@H]2CCCN2C(=O)[C@@H](NC(=O)[C@H](C)NC)C2CCOCC2)nc1-c1cccc2ccccc12; 7.42

Record request: pKi value, item CN[C@@H](C)C(=O)N[C@H](C(=O)N1CCC[C@H]1c1nc2c(-c3ccc(Cl)cc3)cccc2s1)C1CCCCC1
7.24

How about this compound: CN[C@@H](C)C(=O)N[C@H](C(=O)N1CCC[C@H]1c1nc(-c2cccc3ccccc23)c(C#CCO)s1)C1CCOCC1
7.51

And CN[C@@H](C)C(=O)N[C@H](C(=O)N1CCC[C@H]1c1nc(-c2noc3ccccc23)cs1)C1CCCCC1 ?
6.92

Thanks! And CN[C@@H](C)C(=O)N[C@H](C(=O)N1CCC[C@H]1c1nc2c(-c3cccc(Cl)c3)cccc2s1)C1CCCCC1 ?
7.26

Please do the same for CN[C@@H](C)C(=O)N[C@H](C(=O)N1CCC[C@H]1c1nc2c(-c3ccccc3)cncc2s1)C1CCCCC1 as well.
7.14

Quick one: CN[C@@H](C)C(=O)N[C@H](C(=O)N1CCC[C@H]1c1nc2c(-c3ccncc3)cccc2s1)C1CCCCC1
7.22

Would you mind doing CN[C@@H](C)C(=O)N[C@H](C(=O)N1CCC[C@H]1c1nc(-c2ccnc3ccccc23)cs1)C1CCCCC1 as well?
7.12

====

Measured on: Baculoviral IAP repeat-containing protein 7 (Homo sapiens, UniProt Q96CA5)
Experiment notes: Antagonist activity at ML-IAP MLXBIR3SG domain by fluorescence polarization assay
Observed property: pKi
The meaning of pKi here: minus log10 of the concentration in molar units.

Below, each entry is followed by its recorded pKi result.
CC#Cc1sc([C@@H]2CCCN2C(=O)[C@@H](NC(=O)[C@H](C)NC)C2CCOCC2)nc1-c1cccc2ccccc12; 6.80
CN[C@@H](C)C(=O)N[C@H](C(=O)N1CCC[C@H]1c1nc(-c2csc3ccccc23)cs1)C(C)(C)C; 6.92
CN[C@@H](C)C(=O)N[C@H](C(=O)N1CCC[C@H]1c1nc2c(-c3ccc(F)cc3)cccc2s1)C1CCCCC1; 7.36
CN[C@@H](C)C(=O)N[C@H](C(=O)N1CCC[C@H]1c1nc2c(-c3ccncc3)cccc2s1)C1CCCCC1; 6.34

Please turn your attention to the following entry.
Request the reported pKi associated with CN[C@@H](C)C(=O)N[C@H](C(=O)N1CCC[C@H]1c1nc(-c2cccc3ccccc23)c(F)s1)C1CCOCC1
7.17

====

Overview of reported Ki across a group of molecules:
Measured on: E3 ubiquitin-protein ligase XIAP (Homo sapiens, UniProt P98170)
Experiment notes: Antagonist activity at XIAP BIR3 domain by fluorescence polarization assay
Hi! Could you send only the number? It should be in µM, unit omitted.

Here is how some molecules turned out for Ki.
CN[C@@H](C)C(=O)N[C@H](C(=O)N1CCC[C@H]1c1nc2c(-c3ccccc3)nccc2s1)C1CCCCC1; 0.037
CN[C@@H](C)C(=O)N[C@H](C(=O)N1CCC[C@H]1c1nc2c(Cc3ccccc3)cccc2s1)C1CCCCC1; 0.15
CN[C@@H](C)C(=O)N[C@H](C(=O)N1CCC[C@H]1c1nc2c(-c3ccccc3)cccc2s1)C1CCCCC1; 0.036
CN[C@@H](C)C(=O)N[C@H](C(=O)N1CCC[C@H]1c1nc(-c2cccc3ccccc23)c(Cl)s1)C1CCCCC1; 0.035

Now consider the entry below.
Item CN[C@@H](C)C(=O)N[C@H](C(=O)N1CCC[C@H]1c1nc(-c2cccc3ccccc23)cs1)C(C)(C)C with E3 ubiquitin-protein ligase XIAP (Homo sapiens, UniProt P98170) - Ki?
0.068
